Data credit: paper PMC9046089

System: RPE1-hTERT TP53-/- Cas9 CCNE1-high cells
MEASUREMENT_PROTOCOL: Cell proliferation assay (Incucyte growth inhibition)
Type: cell-based
CONDITION_PARAMETERS: Homo sapiens, RPE-1, read-out: RP-6306 EC50 (mM) RPE1 CCNE1 (C2), growth inhibition, three replicates
READOUT: EC50 (mM)
One number for each entry, in mM.

substance_smiles=C=CCn1c(=O)c2cnc(Nc3ccc(N4CCN(C)CC4)cc3)nc2n1-c1cccc(C(C)(C)O)n1 readout=EC50 measurement=0.000113

Now, please, on to the next molecule.
Could you share which EC50 value was measured for Cc1cc2c(C(N)=O)c(N)n(-c3c(C)ccc(O)c3C)c2nc1C ?
0.000238
